# EXPERIMENT DESCRIPTION: protein stability index of a GFP-peptide fusion (yeast GPS) (PSI 1-4); higher = more stable; sorted into four equal gates, so the index is relative within each strain
# STATED CONDITIONS: ubr1∆
ENDPOINT: protein stability index
Quick one: just the number, no unit, thanks!

QUERY: Looking for the measured protein stability index of DKEKEENNDDALDLDLD [MED4] , can you help?
RESULT: 3.16

QUERY: Input AKKSTTISKESTPDQRK [ESC2]
RESULT: 2.92

QUERY: Item: PITSETAMKKVEDGNIL [RPL25]
RESULT: 3.24

QUERY: Same question, LAAVPAAGPASAGGAAA [RPP2A] this time
RESULT: 1.61

QUERY: Thanks! And VLITSYEMVIREKNALK [ISW2] ?
RESULT: 2.78

QUERY: Subsequent entry: PQKYVLHPQLHEVQYQE [SIN4]
RESULT: 1.6

QUERY: Another sequence to look at: LPKFLTVQYVRFFWKRS [UBP6]
RESULT: 1.19

QUERY: Param item: GAAFKVISNLVPKLESS [YJL039C/NUP192]
RESULT: 2.18

QUERY: Please do the same for ASKTNLRLTDVTNSLSN [GAL11] as well.
RESULT: 3.28

QUERY: Param item: ISTGGFMSNDGPTLEKY [SNU114]
RESULT: 2.12

QUERY: Can you check MELLTQMDGFDNLGQTK [RPT4] next?
RESULT: 3.44

QUERY: Request: SPFFVLDEVDAALDITN [SMC1]
RESULT: 2.69

QUERY: Can you handle KLLDSGCENPADVFRRC [SRP72] next?
RESULT: 2.16

QUERY: Would you mind doing HVVTREKGPQVCAKLFG [RPO21] as well?
RESULT: 3.08

* * *

# EXPERIMENT DESCRIPTION: protein stability index of a GFP-peptide fusion (yeast GPS) (PSI 1-4); higher = more stable; sorted into four equal gates, so the index is relative within each strain
# STATED CONDITIONS: pdr5∆
Task for the reader: assign each of the following sequences its reported protein stability index.
Keep it simple and answer with nothing but the number.

QUERY: Item GIIITDQSNVQYYLSVL [BRR2] has what recorded protein stability index?
RESULT: 3.44

QUERY: Lookup TTLKLSPSPILLTSAGC [NUT1]
RESULT: 1.42

QUERY: Here is the next sequence: LDDDSIVNHEQDLPKIN [SRB4]
RESULT: 2.92

QUERY: Field entry: YVNVAISIYNMLPPKSV [SSN2]
RESULT: 1.82

QUERY: Also, PETGDHVVGRIAEVGNK [RRP4] please.
RESULT: 3.44

QUERY: What would you report for GGDWERRNRYKTYYGIH [RPN7] ?
RESULT: 1.4

QUERY: Consider next the sequence AEFILKNRSTIFWGIRL [BRR2] in the same way.
RESULT: 1.93

QUERY: // next record GHDADDGYQLFHAEPSG [PUP2]
RESULT: 2.97

* * *

I'd be grateful if you could share measured protein stability index for these entries.
# EXPERIMENT DESCRIPTION: protein stability index of a GFP-peptide fusion (yeast GPS) (PSI 1-4); higher = more stable; sorted into four equal gates, so the index is relative within each strain
# STATED CONDITIONS: pdr5∆
Enter the number alone.

QUERY: Which protein stability index is reported for this sequence? KVTSTLLEQDTSTEKLY [PRE9]
RESULT: 3

QUERY: Item: KKRFDEFMAGFNIISMT [SMC4]
RESULT: 2.52

QUERY: Let us now turn to SGNSANNMNVNMNLNPQ [GAL11]
RESULT: 2.87

QUERY: Again, but for DNDTVVTNDDKSDDDDH [SRB8]
RESULT: 2.88

QUERY: Same question, VRYTTSVMPPNEVYSAY [DLS1] this time
RESULT: 3.12

QUERY: Thanks! And IVEADEKKGIVQASVTS [RET1] ?
RESULT: 2.6

QUERY: Same question for LLVGLIKTFYWLEQFLS [NUT1] please.
RESULT: 1.11

QUERY: Let us now turn to KISEGSAKPTFSFSKSE [YOR098C/NUP1]
RESULT: 1.92

QUERY: Another: EVSDFDEMYELTDPMTV [DIB1]
RESULT: 3.48

QUERY: Do the same for MFGIRSGNNNGGFTNLT [YDL088C/ASM4] please
RESULT: 3.41

QUERY: Note, next up: LNSYWVNQDSTYKYFEV [RPL15A]
RESULT: 3.27

QUERY: Repeat for the following sequence: SPYAAMLAAQDVAAKCK [RPS14A]
RESULT: 1.82

QUERY: Consider next the sequence QRVCLRSDSYMLHKVLE [RPT6] in the same way.
RESULT: 2.95

QUERY: Same thing, different sequence: MLPGSSNGGGKVKPIRG [RPO31]
RESULT: 3.36

* * *

# EXPERIMENT DESCRIPTION: protein stability index of a GFP-peptide fusion (yeast GPS) (PSI 1-4); higher = more stable; sorted into four equal gates, so the index is relative within each strain
# STATED CONDITIONS: pdr5∆
Label class 1 when protein stability index is at or above 3; anything below gets class 0.

QUERY: Threshold query (protein stability index >= 3) on PVLNLDKLWTLIPEDKR [RPL28]
RESULT: class 0

QUERY: Moving on to the next sequence: YYVGQVMRNNESTETGY [DIS3]
RESULT: class 1

QUERY: One more sequence: VGKFLGYVSSLVEPSKV [FAS1]
RESULT: class 0

QUERY: Also KHEEIDTKNLYVIKALQ [RPS10A] , if possible.
RESULT: class 0

QUERY: // repeat for KTVCAIALILAIQMVDP [SMC3] and report
RESULT: class 0

QUERY: Cool, now PLLSLDVTPISMFGSDQ [RPN4]
RESULT: class 0

QUERY: # iterate: SNMFDNSADVDMDAQGR [YGL100W/SEH1]
RESULT: class 1

QUERY: Field entry: KIIELMNKIFTIFKSGE [YML103C/NUP188]
RESULT: class 0

QUERY: Let us now turn to KTRGPFHFRAPSRIFYK [RPL16A]
RESULT: class 0

QUERY: Queued: SASSKEFNFTNLQAKPL [YAR002W/NUP60]
RESULT: class 0

QUERY: # repeat for SCKDSQLKWAQNTIDDT [YIL149C/MLP2]
RESULT: class 0

QUERY: Param item: GGGHVSQVYAIRQAIAK [RPS16A]
RESULT: class 0

* * *

Consider the following sequences; for each one, report its protein stability index.
# EXPERIMENT DESCRIPTION: protein stability index of a GFP-peptide fusion (yeast GPS) (PSI 1-4); higher = more stable; sorted into four equal gates, so the index is relative within each strain
# STATED CONDITIONS: pdr5∆
API note: the answer field is a bare number with no unit suffix.

QUERY: What does the record list as protein stability index for AHKLKKSLDSIPMSKTI [FAS2] ?
RESULT: 3.01

QUERY: And for QTLLQRSEDPAGLGKTN [YGR119C/NUP57] ?
RESULT: 3.12

QUERY: Try this sequence next: QAISYLHKLQRMRLRAL [GRR1]
RESULT: 1.74

QUERY: Also KQDKTLQKVENQTIKEA [YIL149C/MLP2] , if possible.
RESULT: 3.15

QUERY: Also need LYKTFFKRNAVFVGTIF [QCR9] , thanks.
RESULT: 1.36

QUERY: Another sequence to check: LNRSHFATTKAECISLI [ECM29]
RESULT: 2

QUERY: Similarly, RKVREQEELKKRQELEE [MED2] ?
RESULT: 2.36

QUERY: Also check GILDEIMFNHARIIRSE [RGR1]
RESULT: 2.98

QUERY: # iterate: LKYLSVEEVIKLVRDSF [PRE7]
RESULT: 3.27

QUERY: What do we get for EGIKVVDIDDPDMMVDS [SNF2] ?
RESULT: 3.14

QUERY: And what about the sequence NLEKNYLAKLSKQLSLE [IRR1] ?
RESULT: 3.34

QUERY: Cool, now SVVSMSNDVLKPETPKG [SIR2]
RESULT: 3.51

QUERY: Try this sequence too: QQQQTSPPPQTHQSPPP [SNF5]
RESULT: 2.88

QUERY: Try this sequence too: SAKPSQIPTVSSPLGFE [SIR4]
RESULT: 2.98
